measurement description: recombinant barcode read abundance after kanamycin selection (control-corrected) (log10(CPM+1)); higher = more efficient recombination; sequences stand for … in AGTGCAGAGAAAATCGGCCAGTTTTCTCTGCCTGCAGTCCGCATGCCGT…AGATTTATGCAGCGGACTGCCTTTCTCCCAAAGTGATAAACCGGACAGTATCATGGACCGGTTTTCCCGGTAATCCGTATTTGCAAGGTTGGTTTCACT; site = the 11-nt target;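 further: IS621 recombinase and bridge RNA in Escherichia coli cells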
Measured recombinant barcode read abundance (log10), listed per entry for reference.
metric: recombinant barcode read abundance (log10)

residue sequence: TCTCATTCTTGGGTTCTAACCTGTTGCGT (site TCTCATTCTAC)
observed value: 0.937
--
residue sequence: TCCCAGTCTTGGGTTCTAACCTGTTGCCT (site TCCCAGTCTAA)
observed value: 0.0986
--
residue sequence: CTACCATCTTGGGTTCTAACCTGTTGCCG (site CTACCGTCTCC)
observed value: 0.157
--
residue sequence: AGAGTAGCTTGGGTTCTAACCTGTTGCAC (site GTTTATACTTG)
observed value: 0.0243
--
residue sequence: CAATGGTCTTGGGTTCTAACCTGTTGCAT (site CAATGGTCTAG)
observed value: 0.54
--
residue sequence: TGTTCATCTTGGGTTCTAACCTGTTGCCT (site TGTTCTTCTAG)
observed value: 0.0677
--
residue sequence: CAGGGCCCTTGGGTTCTAACCTGTTGCCT (site TAGGGCCCTAG)
observed value: 0.397
--
residue sequence: GTGGGAACTTGGGTTCTAACCTGTTGCTT (site GTGGGAACTAA)
observed value: 1.97
--
residue sequence: AACGTGTCTTGGGTTCTAACCTGTTGCCT (site AAGGTGTCTAG)
observed value: 0.103
--
residue sequence: GAGCTACCTTGGGTTCTAACCTGTTGCCC (site GAGCTACCTGG)
observed value: 1.72
--
residue sequence: ACGAACGCTTGGGTTCTAACCTGTTGCCT (site ACGAGCGCTAG)
observed value: 0.085
--
residue sequence: GATGGCCCTTGGGTTCTAACCTGTTGCCT (site GATGGCCCTAG)
observed value: 1.23
--
residue sequence: CCGCGTGCTTGGGTTCTAACCTGTTGCCT (site CTGCGTGCTAG)
observed value: 0.0444
--
residue sequence: GGAGGACCTTGGGTTCTAACCTGTTGCTT (site GGAGGACCTAA)
observed value: 2.4
--
residue sequence: CTTAGGACTTGGGTTCTAACCTGTTGCCT (site CTTAGGACTGG)
observed value: 0.136
--
residue sequence: CACAAGTCTTGGGTTCTAACCTGTTGCTT (site CACAAGTCTAA)
observed value: 0.474
--
residue sequence: CGAGGTTCTTGGGTTCTAACCTGTTGCCT (site CGAGGTTCTAG)
observed value: 1.06
--
residue sequence: GATGAGTCTTGGGTTCTAACCTGTTGCCT (site GATGAGTCTAG)
observed value: 1.9
--
residue sequence: GAGTTCGCTTGGGTTCTAACCTGTTGCGG (site GAGTTCGCTCC)
observed value: 1.08
--
residue sequence: GACTTACCTTGGGTTCTAACCTGTTGCCT (site GACTTACCTAG)
observed value: 0.843
--
residue sequence: ACAAGAGCTTGGGTTCTAACCTGTTGCCT (site ACTAGAGCTAG)
observed value: 0.133
